Listed compounds paired with reported anti-inflammatory effect, topical (relative inhibition, ibuprofen = 1.0)
# Test system: carrageenin-induced leakage of the pigment, dorsal skin
# RUN_DESCRIPTION: Anti-inflammatory activity for topical route (carrageenin, leakage of pigment in dorsal skin)
# Type: in vivo, rat (Wistar-strain)
# CONDITION_DESCRIPTION: 1% in polyethylene glycol 300, percent inhibition divided by that of ibuprofen
Answer with the value's number alone.

Take a look at these entries with their results.
CC(C)Cc1ccc(C(C)C(=O)OCc2ccccc2Cl)cc1 (centres unmarked); 2.5
CC(=O)OCCOC(=O)C(C)c1ccc(CC(C)C)cc1 (centres unmarked); 2.2
CC(C)Cc1ccc(C(C)C(=O)OCc2ccc(Cl)cc2)cc1 (centres unmarked); 2.8
Cc1ccc(COC(=O)C(C)c2ccc(CC(C)C)cc2)cc1 (centres unmarked); 1.9
CC(C)Cc1ccc(C(C)C(=O)OCc2ccccc2F)cc1 (centres unmarked); 2.9
CCCOC(=O)C(C)c1ccc(CC(C)C)cc1 (centres unmarked); 3.2

Fill in: anti-inflammatory effect, topical (relative inhibition, ibuprofen = 1.0) of CCN(CC)CCOC(=O)C(C)c1ccc(CC(C)C)cc1 (centres unmarked) is ___ 3.0

Please give the measured anti-inflammatory effect, topical (relative inhibition, ibuprofen = 1.0) for this compound: CCOCOC(=O)C(C)c1ccc(CC(C)C)cc1 (centres unmarked) 2.8

Field request: anti-inflammatory effect, topical (relative inhibition, ibuprofen = 1.0) | item: CC(C)Cc1ccc(C(C)C(=O)OCC2CC2)cc1 (centres unmarked) 3.7

If you can, please state the reported anti-inflammatory effect, topical (relative inhibition, ibuprofen = 1.0) value of CC(C)Cc1ccc(C(C)C(=O)OCc2cccnc2Cl)cc1 (centres unmarked) . 1.8
